# System: HepG2
# Test protocol: Effective concentration necessary to decrease extracellular Hepatitis B virus DNA levels by 90% in human hepatoblastoma cell line (2.2.15 cells) in vitro
# Assay type: functional
Result type: EC90 (nM)

P: Nc1nc(O)c2ncn(CCC(CO)CO)c2n1 [PENCICLOVIR]
Q: Nc1ccn([C@@H]2CS[C@H](CO)O2)c(=O)n1 [LAMIVUDINE]
Param metric = EC90; output whichever of P , Q has the minimum value. # answer = label of selected item Q

I: Nc1ccn([C@H]2CC[C@@H](CO)O2)c(=O)n1 [ZALCITABINE]
II: O=c1cc(-c2ccc(O)c(-c3c(O)cc4oc(-c5ccc(O)cc5)cc(=O)c4c3O)c2)oc2cc(O)cc(O)c12 [ROBUSTAFLAVONE]
In terms of reported EC90, does I or II have the smaller number? Identify your selection by its label. II
(II: 2200 nM, I: 8400 nM)
